# condition_info: 338.15 K; 101 kPa; Liquid
value_type: mass density (kg/m3)

INSERT INTO results (compound, value_type, unit_spec, reported_result) VALUES
  ('CCCCCCCO', 'mass density', 'kg/m3', 789.75),
  ('CCCCCCCCO', 'mass density', 'kg/m3', 793.09),
  ('CCCCn1cc[n+](C)c1.N#C[S-] [1-butyl-3-methylimidazolium thiocyanate]', 'mass density', 'kg/m3', 1046.43),
  ('CCCCCCCCCO', 'mass density', 'kg/m3', 796.1),
  ('CCCCCCCCCCO', 'mass density', 'kg/m3', 798.48);
